Data provenance: patent US20090131508A1

# assay.info: plasma levels of brivaracetam in the PPR study
# Assay type: in vivo
# conditions: human, in vivo; stated as basis of expected effect duration; read-out: half-life of the compound (converted)
metric: half-life

[
  {
    "molecule": "CCC[C@@H]1CC(=O)N([C@@H](CC)C(N)=O)C1 [Brivaracetam]",
    "metric": "half-life",
    "observed": "~7.7 h"
  }
]
